These entries and their values trace back to paper PMC5507300.

system: E. coli GYR107 GyrB F513L/L422V; assay: microbe, parasite or virus in culture; type: cell-based; conditions: Escherichia coli

| smiles data | lt gt eq | MIC, µg/mL |
| --- | --- | --- |
| COc1ccc(C)cc1NC(=O)N1CCC(n2nncc2-c2ccc3c(cnn3C)c2)CC1 | > | 64 |
| CO[C@@H]1[C@@H](OC(N)=O)[C@@H](O)[C@H](Oc2ccc3c(O)c(NC(=O)c4ccc(O)c(CC=C(C)C)c4)c(=O)oc3c2C)OC1(C)C | = | 2 |
| Cn1ncc2cc(-c3cnnn3C3CCN(C(=O)Nc4cc(Cl)cc(Cl)c4)CC3)ccc21 | > | 64 |
| Cn1ncc2cc(-c3nnnn3C3CCN(C(=O)Nc4ccc(Cl)c(Cl)c4)CC3)ccc21 | > | 64 |
| CN(C)[C@@H]1C(O)=C(C(N)=O)C(=O)[C@@]2(O)C(O)=C3C(=O)c4c(O)cccc4[C@@](C)(O)[C@H]3C[C@@H]12 | = | 0.5 |
| COc1cc(Cc2cnc(N)nc2N)cc(OC)c1OC | = | 0.0625 |

---

Each entry below carries its recorded MIC.
tested on: A. baumanii MB9797 (ATCC19606); assay: Broth microdilution MIC, A. baumannii MB9797; type: cell-based; conditions: Acinetobacter baumannii
measurement label: MIC

| smiles data | target entity | result |
| --- | --- | --- |
| C[C@H]1COc2c(N3CCN(C)CC3)c(F)cc3c(=O)c(C(=O)O)cn1c23 | A. baumanii MB9797 (ATCC19606) | 0.125 µg/mL |
| Cn1ncc2cc(-c3nnnn3C3CCN(C(=O)Nc4ccc(Cl)c(Cl)c4)CC3)ccc21 | A. baumanii MB9797 (ATCC19606) | > 64 µg/mL |
| COc1ccc(C)cc1NC(=O)N1CCC(n2nncc2-c2ccc3c(cnn3C)c2)CC1 | A. baumanii MB9797 (ATCC19606) | > 64 µg/mL |
| Cn1ncc2cc(-c3cnnn3C3CCN(C(=O)Nc4cc(Cl)cc(Cl)c4)CC3)ccc21 | A. baumanii MB9797 (ATCC19606) | > 64 µg/mL |
| O=C(O)c1cn(C2CC2)c2cc(N3CCNCC3)c(F)cc2c1=O | A. baumanii MB9797 (ATCC19606) | > 0.125 µg/mL |
